Particle Size, cumulative distribution Q3 X10 overview
ASSAY EXPLANATION: dry Sympatec PSD analysis (particle size distribution)
Format: physicochemical
RUN CONDITIONS: dry Sympatec PSD; after isolation / pre-storage sample
MEASURED QUANTITY: Particle Size, cumulative distribution Q3 X10 (μ)

COMPOUND	UNIT TAG	TEST VALUE
CCC(=O)OCC(=O)[C@@]1(OC(=O)CC)[C@@H](C)C[C@H]2[C@@H]3CCC4=CC(=O)C=C[C@]4(C)[C@@]3(Cl)[C@@H](O)C[C@@]21C.O [BDP hydrate]	μ	0.51
CCC(=O)OCC(=O)[C@@]1(OC(=O)CC)[C@@H](C)C[C@H]2[C@@H]3CCC4=CC(=O)C=C[C@]4(C)[C@@]3(Cl)[C@@H](O)C[C@@]21C [Comparative Example 2]	μ	0.84
CCC(=O)OCC(=O)[C@@]1(OC(=O)CC)[C@@H](C)C[C@H]2[C@@H]3CCC4=CC(=O)C=C[C@]4(C)[C@@]3(Cl)[C@@H](O)C[C@@]21C [anhydrous BDP, anhydrous beclomethasone diproprionate]	μ	0.43
CCC(=O)OCC(=O)[C@@]1(OC(=O)CC)[C@@H](C)C[C@H]2[C@@H]3CCC4=CC(=O)C=C[C@]4(C)[C@@]3(Cl)[C@@H](O)C[C@@]21C [Comparative Example 1]	μ	1.26
